# System Tested: Peroxisome proliferator-activated receptor alpha (Homo sapiens) (UniProt Q07869)
# Sequence (Q07869 whole entry, the tested form may be a part): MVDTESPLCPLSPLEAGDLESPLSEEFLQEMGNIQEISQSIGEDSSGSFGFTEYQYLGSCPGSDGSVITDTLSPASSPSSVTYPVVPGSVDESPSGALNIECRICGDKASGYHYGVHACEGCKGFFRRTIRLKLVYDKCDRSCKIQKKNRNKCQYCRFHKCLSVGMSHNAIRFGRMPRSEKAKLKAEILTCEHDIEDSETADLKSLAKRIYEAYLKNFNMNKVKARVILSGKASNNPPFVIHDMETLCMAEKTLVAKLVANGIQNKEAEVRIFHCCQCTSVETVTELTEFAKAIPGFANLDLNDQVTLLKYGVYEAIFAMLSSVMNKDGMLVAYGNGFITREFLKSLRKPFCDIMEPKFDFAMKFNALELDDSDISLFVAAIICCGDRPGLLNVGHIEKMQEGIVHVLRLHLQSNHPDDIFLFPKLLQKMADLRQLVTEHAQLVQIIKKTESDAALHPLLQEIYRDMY
# Assay Notes: Agonist activity against human Gal4-fussed PPARalpha by luciferase reporter gene assay relative to finofibrate
# Format: functional
Metric: Emax

- Smiles Input: "COc1cccc(OC(=O)N(CC(=O)O)[C@@H](C)c2cccc(OCc3coc(-c4ccc(Cl)cc4)n3)c2)c1"
  Emax: "69%"
- Smiles Input: "COC(=O)N(CC(=O)O)Cc1cccc(OCc2coc(-c3ccc(C)cc3)n2)c1"
  Emax: "85%"
- Smiles Input: "COC(=O)N(CC(=O)O)[C@@H](C)c1cccc(OCc2coc(-c3ccc(Cl)cc3)n2)c1"
  Emax: "65%"
- Smiles Input: "COC(=O)N(CC(=O)O)Cc1cccc(OCc2coc(-c3ccc(C(F)(F)F)cc3)n2)c1"
  Emax: "74%"
- Smiles Input: "COc1cc(OC(=O)N(CC(=O)O)[C@@H](C)c2cccc(OCc3coc(-c4ccc(Cl)cc4)n3)c2)ccc1F"
  Emax: "64%"

Look up and state reported Emax for COC(=O)N(CC(=O)O)Cc1cccc(OCc2coc(-c3ccc(F)c(Cl)c3)n2)c1 97%

// fetch Emax given entry COC(=O)N(CC(=O)O)Cc1cccc(OCc2coc(-c3ccc(F)cc3F)n2)c1 78%

Quick one: give measured Emax for Cc1ccc(F)c(OC(=O)N(CC(=O)O)[C@@H](C)c2cccc(OCc3coc(-c4ccc(Cl)cc4)n3)c2)c1 56%

Report Emax, nothing else, for this compound: C[C@@H](c1cccc(OCc2coc(-c3ccc(Cl)cc3)n2)c1)N(CC(=O)O)C(=O)Oc1ccccc1 53%

Find the measured Emax of COC(=O)N(CC(=O)O)Cc1cccc(OCc2nc(-c3ccc(Cl)cc3)oc2C)c1 and report it. 79%

Write down Emax measured for item Cc1cccc(OC(=O)N(CC(=O)O)[C@@H](C)c2cccc(OCc3coc(-c4ccc(Cl)cc4)n3)c2)c1 62%

Check the records and state Emax for COC(=O)N(CC(=O)O)Cc1cccc(OCc2csc(-c3ccc(C(F)(F)F)cc3)n2)c1 73%

Identify measured Emax corresponding to COC(=O)N(CC(=O)O)Cc1cccc(OCc2coc(-c3cccc(C)c3)n2)c1 92%

Please supply the value of reported Emax for the item COC(=O)N(CC(=O)O)Cc1cccc(OCc2csc(-c3ccc(C)cc3)n2)c1 71%

# return recorded Emax for entry COC(=O)N(CC(=O)O)Cc1cccc(OCc2csc(-c3ccc(Cl)cc3)n2)c1 90%

# return recorded Emax for input COC(=O)N(CC(=O)O)Cc1cccc(OCc2coc(-c3ccc(F)cc3)n2)c1 88%

// Input: COC(=O)N(CC(=O)O)Cc1cccc(OCc2csc(-c3ccccc3)n2)c1 . Output its Emax only. 70%

Item COc1ccc(OC(=O)N(CC(=O)O)[C@@H](C)c2cccc(OCc3coc(-c4ccc(Cl)cc4)n3)c2)cc1 : provide Emax 69%

----------
# Assay Notes: Drug level in hamster plasma at 10 mg/kg, po
# Assay type: ADME, organism-based
# Design: dose 10 mg/kg, route oral
# Details: cricetinae, in vivo, read-out: Drug uptake
Metric: concentration (µM)
Write the value in µM as a bare number.

Supply concentration value. Item: COC(=O)N(CC(=O)O)Cc1cccc(OCc2coc(-c3ccc(Cl)cc3)n2)c1 72.9

----------
# System Tested: Peroxisome proliferator-activated receptor alpha (Homo sapiens)
# Assay Notes: Agonist activity against human Gal4-fussed PPARalpha by luciferase reporter gene assay relative to finofibrate
# Type: functional
Metric: Emax (%)
# number only, unit % dropped from output

Worked set:
- Smiles Input: "COC(=O)N(CC(=O)O)Cc1cccc(OCc2coc(-c3ccccc3)n2)c1"
  Metric: "Emax"
  Value Observed: 105
- Smiles Input: "COC(=O)N(CC(=O)O)[C@@H](C)c1cccc(OCc2coc(-c3ccc(C)cc3)n2)c1"
  Metric: "Emax"
  Value Observed: 87

Supply measured Emax of COC(=O)N(CC(=O)O)Cc1cccc(OCc2coc(-c3ccc(Cl)cc3)n2)c1 in your reply. 78

Look up and report measured Emax for this entry: COC(=O)N(CC(=O)O)Cc1cccc(OCc2csc(-c3cccc(Cl)c3)n2)c1 117
